assay-details: Stability in mouse liver microsomes at 1 uM incubated for 15 mins
Type: ADME, Microsome
run-parameters: read-out: Stability
property: remaining at 0.25 h, 1 µM

remaining at 0.25 h, 1 µM lookup needed for CS(=O)(=O)N1CCN(Cc2cn3c(Cl)c(-c4cnc(N)nc4)nc(N4CCOCC4)c3n2)CC1 , thanks. 91%

Look up remaining at 0.25 h, 1 µM: CS(=O)(=O)N1CCN(Cc2nc3c(N4CCOCC4)nc(-c4cnc(N)nc4)cn3c2Br)CC1 43%

# get_value(readout='remaining at 0.25 h, 1 µM', item= CS(=O)(=O)N1CCN(Cc2cn3cc(-c4cnc(N)nc4C(F)(F)F)nc(N4CCOCC4)c3n2)CC1 ) 96%

Give its remaining at 0.25 h, 1 µM value. Item: CS(=O)(=O)N1CCN(Cc2cn3cc(-c4cnc(N)nc4)nc(N4CCOCC4)c3n2)CC1 88%

What value of remaining at 0.25 h, 1 µM has been recorded for this entry: CCS(=O)(=O)N1CCN(Cc2cn3cc(-c4cnc(N)nc4)nc(N4CCOCC4)c3n2)CC1 64%

Item under review: Cc1c(CN2CCN(S(C)(=O)=O)CC2)nc2c(N3CCOCC3)nc(-c3cnc(N)nc3)cn12 . Reported remaining at 0.25 h, 1 µM? 80%
